src = DBAASP

Tested on: Escherichia coli
READOUT KIND: MIC (µM)
Answers are plain numbers, in µM.

Ask: Could you share which MIC value was measured for `CC[C@H](C)[C@H](NC(=O)[C@H](Cc1ccc(O)cc1)NC(=O)[C@@H](NC(=O)[C@@H]1CCCN1C(=O)[C@@H](N)CCCN=C(N)N)C(C)C)C(=O)N1CCC[C@H]1C(=O)N[C@@H](CCC(N)=O)C(=O)N1CCC[C@H]1C(=O)N[C@@H](CCCN=C(N)N)C(=O)N1CCC[C@H]1C(=O)N1CCC[C@H]1C(=O)N[C@@H](Cc1cnc[nH]1)C(=O)N1CCC[C@H]1C(=O)N[C@@H](CCCN=C(N)N)C(=O)N[C@@H](CC(C)C)C(=O)O` ?
Result: 16

----------
// values below are MIC; system is Micrococcus luteus CCM 144
One number for each entry, in µM.

Examples with answers:
[
  {
    "MOLECULE": "CC[C@H](C)[C@H](NC(=O)[C@H](C)NC(=O)[C@H](CCCCN)NC(=O)[C@H](Cc1c[nH]c2ccccc12)NC(=O)[C@H](CC(N)=O)NC(=O)[C@@H](N)CCCCN)C(=O)N[C@@H](CC(C)C)C(=O)N[C@@H](CCCCN)C(=O)N[C@@H](Cc1cnc[nH]1)C(=O)N[C@H](C(=O)N[C@H](C(=O)N[C@@H](CCCCN)C(N)=O)[C@@H](C)CC)[C@@H](C)CC [KNWKAILKHIIK]",
    "MIC, µM": 5
  },
  {
    "MOLECULE": "CC[C@H](C)[C@H](NC(=O)[C@H](C)NC(=O)CNC(=O)[C@H](Cc1c[nH]c2ccccc12)NC(=O)[C@H](CC(N)=O)NC(=O)[C@@H](N)CC(C)C)C(=O)N[C@@H](CC(C)C)C(=O)N[C@@H](CCCCN)C(=O)N[C@@H](Cc1cnc[nH]1)C(=O)N[C@H](C(=O)N[C@H](C(=O)N[C@@H](CCCCN)C(N)=O)[C@@H](C)CC)[C@@H](C)CC [LNWGAILKHIIK]",
    "MIC, µM": 1.5
  }
]

# evaluate next
Ask: I would be grateful if you could share the reported MIC for CC[C@H](C)[C@H](NC(=O)CN)C(=O)N[C@@H](CC(C)C)C(=O)N[C@@H](CO)C(=O)N[C@@H](CO)C(=O)N[C@@H](CC(C)C)C(=O)N[C@@H](Cc1c[nH]c2ccccc12)C(=O)N[C@@H](CCCCN)C(=O)N[C@@H](CCCCN)C(=O)N[C@@H](CC(C)C)C(=O)N[C@@H](CCCCN)C(=O)N[C@@H](CCCCN)C(=O)N[C@H](C(=O)N[C@H](C(=O)N[C@@H](C)C(=O)N[C@@H](CCCCN)C(N)=O)[C@@H](C)CC)[C@@H](C)CC [GILSSLWKKLKKIIAK] .
Result: 3

----------
Provide the recorded MIC for the entries that follow.
Test system: Staphylococcus aureus
Give bare numbers, in µM.

[
  {
    "COMPOUND SMILES": "CC(C)C[C@H](NC(=O)[C@H](CCCCN)NC(=O)CNC(=O)[C@H](CCCCN)NC(=O)[C@H](CC(C)C)NC(=O)[C@H](CCCCN)NC(=O)[C@H](CC(C)C)NC(=O)[C@H](CCCCN)NC(=O)[C@H](C)NC(=O)CNC(=O)[C@H](CC(C)C)NC(=O)[C@H](CCCCN)NC(=O)[C@H](CC(C)C)NC(=O)[C@H](CCCCN)NC(=O)[C@H](C)NC(=O)[C@H](CC(C)C)NC(=O)[C@H](CCCCN)NC(=O)[C@H](CCCCN)NC(=O)[C@@H](N)CCCCN)C(=O)NCC(=O)N[C@@H](C)C(N)=O",
    "TESTED ON": "Staphylococcus aureus",
    "MIC (µM)": 100
  }
]

Ask: Find the recorded MIC belonging to `CC[C@H](C)[C@H](NC(=O)[C@H](Cc1cnc[nH]1)NC(=O)[C@H](CCCCN)NC(=O)[C@H](CC(C)C)NC(=O)[C@H](CC(C)C)NC(=O)[C@H](CO)NC(=O)[C@H](CCSC)NC(=O)[C@H](Cc1ccccc1)NC(=O)[C@H](CCCCN)NC(=O)CN)C(=O)N[C@@H](CC(C)C)C(=O)N[C@@H](CCCCN)C(N)=O` and report it.
Result: 43.3
